Assay Info: Plasma lysine response after liquid lysine drench
Format: in vivo, bovines
Conditions Used: cattle (bovine), oral, 60 g, Cow 1, 60-gram dose, 80 minutes, read-out: Cow 1, plasma lysine
Reported Metric: concentration at 80 min (ng/mL)
Record the value in ng/mL, omitting the unit from your answer.

Which concentration at 80 min is reported for this compound? NCCCC[C@H](N)C(=O)O [liquid lysine, lysine]
11300

----------
Assay Info: Plasma lysine response after liquid lysine drench
Type: in vivo, bovines
Conditions Used: cattle (bovine), oral, 60 g, Cow 2, 60-gram amino acid dose, sampling time 0 minutes, read-out: Cow 2, plasma lysine
Reported Metric: concentration at 0 min (ng/mL)
Expressed in ng/mL, but write only the number.

Look up concentration at 0 min for this molecule: `NCCCC[C@H](N)C(=O)O`
10700

Origin of the recorded values: patent US7470446B2
